assay: inhibitors of intracellular T. cruzi replication, confirmation, NIH3T3 host cells, beta-gal parasites, cherry-pick, set 2 (AID 651740);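 further: plate controls were neutral control median for no effect and positive control median for full effect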; conditions: T. cruzi beta-gal in NIH3T3, GalScreen luminescence, 90 h; at 2.09 µM; stronger effect = higher value
Hit rate of the full screen: of about 5,600 compounds, about 1,200 (21%) were called active. Another 3% or so got no clear call; they are omitted. A selection follows.
Respond with met for inhibition values of 50% and above, not met for values below.

Completed entries (count: 3):
Given `C[C@@H]1CN([C@H](C)CO)C(=O)c2cc(NC(=O)Nc3ccc(F)cc3)ccc2O[C@@H](C)CCCCO[C@H]1CN(C)Cc1ccc(Cl)c(Cl)c1` , state whether its inhibition is at least 50%.
met

Given `C[C@H]1CN([C@@H](C)CO)S(=O)(=O)c2ccc(C#Cc3cccc(F)c3)cc2O[C@@H]1CN(C)S(=O)(=O)c1cn(C)cn1` , state whether its inhibition is at least 50%.
not met

Given `OC[C@@H]1[C@H](c2ccc(C#Cc3ccccc3)cc2)[C@@H]2CN(Cc3cncnc3)CCCCN12` , state whether its inhibition is at least 50%.
met

Others:
Given `Cc1cccc(-c2ccc([C@@H]3[C@H](CO)N4CCCCN(C(=O)c5ccc6c(c5)OCO6)C[C@@H]34)cc2)c1` , state whether its inhibition is at least 50%.
met

Given `C[C@@H]1CCCCO[C@H](CN(C)S(=O)(=O)c2ccc(F)cc2)[C@H](C)CN([C@@H](C)CO)C(=O)c2cc(NS(=O)(=O)c3ccccc3)ccc2O1` , state whether its inhibition is at least 50%.
not met

Given `O=C(c1cccnc1)N1CCCCN2[C@@H](CO)[C@H](c3ccc(C#Cc4ccccc4)cc3)[C@@H]2C1` , state whether its inhibition is at least 50%.
not met

Given `C[C@H]1CN([C@@H](C)CO)C(=O)CCCn2cc(nn2)CO[C@H]1CN(C)C(=O)c1ccccc1` , state whether its inhibition is at least 50%.
not met

Given `C[C@@H]1CCCCO[C@H](CN(C)Cc2ccc(Cl)c(Cl)c2)[C@H](C)CN([C@@H](C)CO)C(=O)c2cc(NC(=O)C3CCCCC3)ccc2O1` , state whether its inhibition is at least 50%.
met

Given `C[C@H](O)C#Cc1ccc([C@H]2[C@H]3CN(S(=O)(=O)Cc4ccccc4)CCCCN3[C@H]2CO)cc1` , state whether its inhibition is at least 50%.
not met

Given `COc1ccc(CN(C)C[C@H]2OCCCC[C@H](C)Oc3ccc(NC(=O)Nc4ccc5c(c4)OCO5)cc3C(=O)N([C@H](C)CO)C[C@@H]2C)cc1` , state whether its inhibition is at least 50%.
met

---

assay: inhibitors of intracellular T. cruzi replication, confirmation, NIH3T3 host cells, beta-gal parasites, cherry-pick, set 2 (AID 651740);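 further: plate controls were neutral control median for no effect and positive control median for full effect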; details: T. cruzi beta-gal in NIH3T3, GalScreen luminescence, 90 h; at 2.09 µM; stronger effect = higher value
Out of some 5,600 compounds screened, about 1,200 (21%) were called active. Not shown: some 3% with an inconclusive outcome. The list is a sample of the results.
QUANTITY_MEASURED: inhibition (%)
Dear colleague, please return just the value in %, with no unit written.

Guide cases for inhibition, answers given:
Param item = `CN1C(=O)c2cc(NC(=O)c3cnccn3)ccc2OC[C@@H]2O[C@@H](CC(=O)N[C@H]3CCN(Cc4ccccc4)C3)CC[C@H]21` ; retrieve measured inhibition.
32.2

Param item = `CC(C)CC#Cc1ccc2c(c1)O[C@H](CN(C)S(=O)(=O)c1cccc(F)c1)[C@@H](C)CN([C@@H](C)CO)S2(=O)=O` ; retrieve measured inhibition.
110

Param item = `C[C@@H]1CN([C@H](C)CO)C(=O)c2cc(/C=C/c3ccccc3)cnc2O[C@@H]1CN(C)Cc1ccncc1` ; retrieve measured inhibition.
2.78

Param item = `O=C(Nc1ccc2c(c1)[C@@H]1C[C@H](CC(=O)N3CCOCC3)O[C@@H](CO)[C@@H]1O2)c1ccc2c(c1)OCO2` ; retrieve measured inhibition.
6.38

Param item = `C[C@@H]1CN([C@@H](C)CO)S(=O)(=O)c2ccc(-c3cccc(F)c3)cc2O[C@@H]1CN(C)S(=O)(=O)c1ccccc1` ; retrieve measured inhibition.
94.1

Param item = `CC(C)CC#Cc1ccc2c(c1)O[C@H](CN(C)Cc1cccnc1)[C@H](C)CN([C@@H](C)CO)S2(=O)=O` ; retrieve measured inhibition.
81.2

Note: attention shifts to another entry.
Param item = `CC(C)CC#Cc1ccc2c(c1)O[C@H](CN(C)Cc1ccncc1)[C@H](C)CN([C@H](C)CO)S2(=O)=O` ; retrieve measured inhibition.
89.4

---

assay: inhibitors of intracellular T. cruzi replication, confirmation, NIH3T3 host cells, beta-gal parasites, cherry-pick, set 2 (AID 651740);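 further: plate controls were neutral control median for no effect and positive control median for full effect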; conditions: T. cruzi beta-gal in NIH3T3, GalScreen luminescence, 90 h; at 2.09 µM; stronger effect = higher value
The whole screen tested about 5,600 compounds, of which about 1,200 (21%) were called active. Another 3% or so got no clear call; they are omitted. Not all results are given here.
QUANTITY_MEASURED: inhibition (%)
Dear colleague, please return just the value in %, with no unit written.

Guide cases for inhibition, answers given:
Param item = `C[C@@H]1CN([C@@H](C)CO)C(=O)c2cc(C#Cc3ccccc3)cnc2O[C@H]1CN(C)C(=O)c1ccccn1` ; retrieve measured inhibition.
62.8

Param item = `COc1ccc(C#Cc2cnc3c(c2)C(=O)N([C@@H](C)CO)C[C@H](C)[C@@H](CN(C)C(C)=O)O3)cc1` ; retrieve measured inhibition.
-5.22

Param item = `C[C@H](CO)N1C[C@H](C)[C@H](CN(C)C(=O)C2CCCCC2)Oc2ncc(C#Cc3cccc(F)c3)cc2C1=O` ; retrieve measured inhibition.
44.3

Param item = `O=C(Nc1ccc(-c2ccccc2)cc1)[C@H]1[C@H](CO)[C@H]2Cn3c(cccc3=O)[C@H]2N1CC1CC1` ; retrieve measured inhibition.
33.8

Others:
Param item = `C[C@H](CO)N1C[C@H](C)[C@H](CN(C)Cc2ccncc2)Oc2cc(-c3ccncc3)ccc2S1(=O)=O` ; retrieve measured inhibition.
90.6

Param item = `O=C(c1cccc(F)c1)N1CCCCN2[C@H](CO)[C@H](c3ccc(-c4ccncc4)cc3)[C@H]2C1` ; retrieve measured inhibition.
82

Param item = `CC(C)C#Cc1ccc([C@H]2[C@H](CO)N3CCCCN(C(=O)NC(C)C)C[C@@H]23)cc1` ; retrieve measured inhibition.
-8.04

Param item = `O=C(Nc1cc(F)ccc1F)N1CCCCN2[C@H](CO)[C@@H](c3ccc(-c4cncnc4)cc3)[C@H]2C1` ; retrieve measured inhibition.
13.7

Param item = `COCC(=O)N(C)C[C@@H]1Oc2ncc(C#Cc3ccccc3OC)cc2C(=O)N([C@@H](C)CO)C[C@H]1C` ; retrieve measured inhibition.
99.4

Param item = `Cc1ccc(S(=O)(=O)N(C)C[C@@H]2Oc3ncc(-c4cc5ccccc5o4)cc3C(=O)N([C@H](C)CO)C[C@@H]2C)cc1` ; retrieve measured inhibition.
43

Param item = `C[C@@H]1CN([C@@H](C)CO)C(=O)c2cc(NC(=O)Nc3cccc4ccccc34)ccc2O[C@@H](C)CCCCO[C@H]1CN(C)Cc1ccccc1` ; retrieve measured inhibition.
94.8

Param item = `C[C@@H]1CN([C@@H](C)CO)C(=O)Cc2cc(NC(=O)C3CCCCC3)ccc2O[C@@H]1CN(C)Cc1ccc(C(=O)Nc2ccccc2N)cc1` ; retrieve measured inhibition.
83.7

Param item = `C[C@@H]1CN([C@H](C)CO)S(=O)(=O)c2ccc(C#Cc3ccncc3)cc2O[C@@H]1CN(C)S(=O)(=O)c1ccc(F)cc1` ; retrieve measured inhibition.
22.2

Param item = `COc1ccc(S(=O)(=O)Nc2ccc3c(c2)C(=O)N([C@@H](C)CO)C[C@H](C)[C@H](CN(C)Cc2ccc(C(F)(F)F)cc2)O3)cc1` ; retrieve measured inhibition.
42.3

Param item = `C[C@@H]1CN([C@H](C)CO)S(=O)(=O)c2ccc(C#C[C@@H](C)O)cc2O[C@@H]1CN(C)Cc1ccc(-c2ccccc2)cc1` ; retrieve measured inhibition.
96.9

---

assay: inhibitors of intracellular T. cruzi replication, confirmation, NIH3T3 host cells, beta-gal parasites, cherry-pick, set 2 (AID 651740);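 further: plate controls were neutral control median for no effect and positive control median for full effect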; details: T. cruzi beta-gal in NIH3T3, GalScreen luminescence, 90 h; at 2.09 µM; stronger effect = higher value
Screen size: about 5,600 compounds; about 1,200 (21%) were called active. Roughly 3% stayed inconclusive and do not appear here. These entries were drawn from the full list.
inhibition by entry:
Dear colleague, please return just the value in %, with no unit written.

Guide cases for inhibition, answers given:
Param item = `C[C@H](CO)N1C[C@H](C)[C@@H](CN(C)S(=O)(=O)c2ccccc2)Oc2ncc(C#Cc3ccccc3F)cc2C1=O` ; retrieve measured inhibition.
93

Param item = `O=C(Nc1cccc(F)c1)N1CCCCN2[C@H](CO)[C@H](c3ccc(C#CC4CC4)cc3)[C@@H]2C1` ; retrieve measured inhibition.
89.3

Param item = `N#Cc1cccc(-c2ccc([C@H]3[C@H](CO)N4CCCCN(C(=O)Nc5cccc(F)c5)C[C@@H]34)cc2)c1` ; retrieve measured inhibition.
87.9

Others:
Param item = `C[C@@H]1CN([C@H](C)CO)C(=O)c2cc(-c3cncnc3)cnc2O[C@H]1CN(C)C(=O)Nc1ccc2c(c1)OCO2` ; retrieve measured inhibition.
-52

Param item = `C[C@@H]1CCCCO[C@H](CN(C)C(=O)Nc2cccc3ccccc23)[C@H](C)CN([C@H](C)CO)C(=O)c2cc(NS(=O)(=O)c3cccs3)ccc2O1` ; retrieve measured inhibition.
52.6

Param item = `C[C@@H]1CN([C@@H](C)CO)C(=O)CCCn2cc(nn2)CO[C@@H]1CN(C)S(=O)(=O)c1ccccc1F` ; retrieve measured inhibition.
34.3

Param item = `C/C=C/c1ccc([C@H]2[C@H]3CN(S(=O)(=O)c4ccccc4)CCCCN3[C@H]2CO)cc1` ; retrieve measured inhibition.
40.8
